# ASSAY_NAME: in vivo
# CONDITIONS_USED: mouse, po, os, Swiss mice, read-out: DL50 (the source's name)
READOUT_LABEL: LD50

# annotated cases, reported LD50 shown
O=P(O)(O)C(Cl)(Cl)P(=O)(O)O [Cl2 MBP, dichloromethanebiphosphonic acid]
> 2000 mg/kg
O=P(O)(O)C(F)(F)P(=O)(O)O [F2 MBP, difluoromethanebiphosphonic acid]
> 2000 mg/kg
NCCCCCC(O)(P(=O)(O)O)P(=O)(O)O [AHEX BP]
> 2000 mg/kg

**Query** Consider the molecule NCCCCC(O)(P(=O)(O)O)P(=O)(O)O [AHPE BP] and give its recorded LD50.
**Result** 1500 mg/kg

====

LD50 listing for selected compounds.
# ASSAY_NAME: in vivo
# CONDITIONS_USED: mouse, ip, Swiss mice, read-out: DL50 (the source's name)
// units = mg/kg; emit number, no label

O=P(O)(O)C(Cl)(Cl)P(=O)(O)O
750

**Query** Consider the compound NCCCCCC(O)(P(=O)(O)O)P(=O)(O)O and give its recorded LD50.
**Result** 125

**Query** Consider the compound O=P(O)(O)C(F)(F)P(=O)(O)O and give its recorded LD50.
**Result** 450

**Query** Consider the compound NCCCCC(O)(P(=O)(O)O)P(=O)(O)O and give its recorded LD50.
**Result** 75

====

# ASSAY_NAME: in vivo
# CONDITIONS_USED: mouse, iv, Swiss mice, read-out: DL50 (the source's name)
LD50 listing for selected compounds.
// units = mg/kg; emit number, no label

# annotated cases, reported LD50 shown
NCCCCCC(O)(P(=O)(O)O)P(=O)(O)O [AHEX BP]
75
NCCCCC(O)(P(=O)(O)O)P(=O)(O)O [AHPE BP]
85
O=P(O)(O)C(Cl)(Cl)P(=O)(O)O [Cl2 MBP, dichloromethanebiphosphonic acid]
130

Next, consider the following compound.
**Query** Consider the compound O=P(O)(O)C(F)(F)P(=O)(O)O [F2 MBP, difluoromethanebiphosphonic acid] and give its recorded LD50.
**Result** 70

====

metaphysical density listing for selected molecules.
# Test system: bone reabsorption (metaphyseal bone density)
# ASSAY_NAME: Metaphyseal bone density / inhibition of bone reabsorption in rats treated for 7 days
# Format: in vivo
# CONDITIONS_USED: 0.1 mg P/kg s.c., 7 days, rats; s.c. NaCl controls 29.72

# annotated cases, reported metaphysical density shown
O=P(O)(O)C(Cl)(Cl)P(=O)(O)O [Cl2 MBP, dichloromethanebiphosphonic acid]
38.21 % volume of calcified tissue
NCCCCC(O)(P(=O)(O)O)P(=O)(O)O [AHPE BP]
50.44 % volume of calcified tissue
NCCC(O)(P(=O)(O)O)P(=O)(O)O [AHPrBP]
50.31 % volume of calcified tissue

**Query** Consider the molecule NCCCCCC(O)(P(=O)(O)O)P(=O)(O)O [AHEX BP] and give its recorded metaphysical density.
**Result** 46.96 % volume of calcified tissue
